# TARGET_UNDER_TEST: wild-type EZH2 (PRC2 complex) (Homo sapiens (Human))
# ASSAY_PROTOCOL: PRC2 enzyme assay on peptide substrates (wild-type EZH2)
REPORTED_PROPERTY: IC50 (nM)
Give the value in nM but do not write nM after it.

INPUT: Please report IC50 for the following molecule: CCN(c1cc(OC)cc(C(=O)NCc2c(C)cc(C)[nH]c2=O)c1C)[C@H]1CC[C@H](N(C)CCOC)CC1
OUTPUT: 6.27

INPUT: Give reported IC50 value for CCN(c1cc(C2CCOCC2)cc(C(=O)NCc2c(C)cc(C)[nH]c2=O)c1C)[C@H]1CC[C@H](N(C)CCOC)CC1
OUTPUT: 8.9

====

In this section, each of the compounds is paired with its reported pIC50.
# System: WSU-DLCL2 cells
# ASSAY_PROTOCOL: Cell proliferation analysis (WSU-DLCL2, Cell Titer Glo)
# Assay type: cell-based
# PROTOCOL_CONDITIONS: Homo sapiens, WSUDLCL2, Table 3B, 6 days, read-out: WSU proliferation IC50
Lab note: report pIC50 as minus log10 of the concentration in molar units, number only.

COMPOUND: CCN(c1cc(-c2ccc(OC)nc2)cc(C(=O)NCc2c(C)cc(C)[nH]c2=O)c1C)C1CCOCC1
REPORTED_PROPERTY: pIC50
QUANTITATIVE_RESULT: 6.66
--
COMPOUND: CCN(c1cc(-c2ccc(COC)nc2)cc(C(=O)NCc2c(C)cc(C)[nH]c2=O)c1C)[C@H]1CC[C@H](N(C)C)CC1
REPORTED_PROPERTY: pIC50
QUANTITATIVE_RESULT: 6.39
--
COMPOUND: CCN(c1cc(-c2ccc(CN3CCNCC3)nc2)cc(C(=O)NCc2c(C)cc(C)[nH]c2=O)c1C)C1C[C@@H](C)N[C@H](C)C1 (some centres unmarked)
REPORTED_PROPERTY: pIC50
QUANTITATIVE_RESULT: 5.10

INPUT: Supply pIC50 value. Item: CCN(c1cc(-c2ccc(N3CCN(C)CC3)nc2)cc(C(=O)NCc2c(C)cc(C)[nH]c2=O)c1C)C1CCN(C)CC1
OUTPUT: 6.81

INPUT: Return pIC50 for the following compound: CCN(c1cc(-c2cnc(OC3CCN(C)CC3)cn2)cc(C(=O)NCc2c(C)cc(C)[nH]c2=O)c1C)C1CCOCC1
OUTPUT: 6.28

====

# TARGET_UNDER_TEST: wild-type EZH2 (PRC2 complex) (Homo sapiens (Human), UniProt Q15910)
# Sequence (Q15910 other isoform, or with tags, fused parts or gaps): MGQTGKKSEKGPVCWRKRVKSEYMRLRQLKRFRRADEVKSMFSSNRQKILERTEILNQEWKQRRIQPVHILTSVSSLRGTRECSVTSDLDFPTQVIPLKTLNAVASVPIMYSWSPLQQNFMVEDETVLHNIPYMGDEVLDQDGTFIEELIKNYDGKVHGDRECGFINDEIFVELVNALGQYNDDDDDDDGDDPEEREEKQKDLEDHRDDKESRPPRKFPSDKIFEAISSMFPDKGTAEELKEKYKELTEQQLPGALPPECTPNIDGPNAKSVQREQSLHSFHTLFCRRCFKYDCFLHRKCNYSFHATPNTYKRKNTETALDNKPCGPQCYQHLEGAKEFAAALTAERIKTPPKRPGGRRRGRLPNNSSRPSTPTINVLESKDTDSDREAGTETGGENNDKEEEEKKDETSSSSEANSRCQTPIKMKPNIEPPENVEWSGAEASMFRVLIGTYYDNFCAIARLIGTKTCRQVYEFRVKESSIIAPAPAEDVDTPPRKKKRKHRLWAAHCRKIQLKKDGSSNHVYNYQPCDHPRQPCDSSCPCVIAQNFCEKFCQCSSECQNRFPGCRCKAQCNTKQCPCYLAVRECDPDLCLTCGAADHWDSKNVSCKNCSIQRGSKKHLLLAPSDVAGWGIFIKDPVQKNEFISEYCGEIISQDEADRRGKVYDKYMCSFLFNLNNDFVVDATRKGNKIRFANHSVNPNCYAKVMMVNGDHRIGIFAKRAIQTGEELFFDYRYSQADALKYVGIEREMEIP
# Sequence (O75530 whole entry partner): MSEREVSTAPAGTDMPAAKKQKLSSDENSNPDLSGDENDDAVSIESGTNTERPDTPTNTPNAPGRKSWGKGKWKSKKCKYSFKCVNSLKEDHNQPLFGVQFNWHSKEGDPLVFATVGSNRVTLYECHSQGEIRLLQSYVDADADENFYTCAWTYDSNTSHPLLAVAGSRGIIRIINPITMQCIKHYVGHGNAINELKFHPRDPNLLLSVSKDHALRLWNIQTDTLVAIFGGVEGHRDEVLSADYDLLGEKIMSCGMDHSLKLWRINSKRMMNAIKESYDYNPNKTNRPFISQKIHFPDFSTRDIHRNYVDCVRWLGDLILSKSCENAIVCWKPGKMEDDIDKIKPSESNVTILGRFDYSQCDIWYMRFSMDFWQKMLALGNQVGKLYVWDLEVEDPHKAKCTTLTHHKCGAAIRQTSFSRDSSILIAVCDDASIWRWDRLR
# Sequence (Q15022 whole entry partner): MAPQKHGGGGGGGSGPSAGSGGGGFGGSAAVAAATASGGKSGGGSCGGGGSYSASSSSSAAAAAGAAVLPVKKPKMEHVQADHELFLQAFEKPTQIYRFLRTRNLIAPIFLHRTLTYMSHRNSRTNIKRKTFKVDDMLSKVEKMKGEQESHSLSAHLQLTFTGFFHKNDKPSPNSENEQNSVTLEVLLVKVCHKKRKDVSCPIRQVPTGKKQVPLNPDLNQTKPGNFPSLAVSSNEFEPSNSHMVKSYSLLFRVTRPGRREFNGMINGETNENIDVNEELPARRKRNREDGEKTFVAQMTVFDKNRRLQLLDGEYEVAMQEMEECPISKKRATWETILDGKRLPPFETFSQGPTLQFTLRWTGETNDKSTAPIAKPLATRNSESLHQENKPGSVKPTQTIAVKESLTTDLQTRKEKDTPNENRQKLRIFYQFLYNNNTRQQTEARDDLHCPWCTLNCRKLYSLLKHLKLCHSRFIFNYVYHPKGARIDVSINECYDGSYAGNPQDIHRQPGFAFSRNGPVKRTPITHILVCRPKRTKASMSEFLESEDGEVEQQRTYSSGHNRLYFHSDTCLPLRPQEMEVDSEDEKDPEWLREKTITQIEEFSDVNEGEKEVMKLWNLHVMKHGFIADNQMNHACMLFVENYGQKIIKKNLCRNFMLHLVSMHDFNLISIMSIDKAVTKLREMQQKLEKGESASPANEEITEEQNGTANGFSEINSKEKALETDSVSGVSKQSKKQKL
# Sequence (Q09028 whole entry partner): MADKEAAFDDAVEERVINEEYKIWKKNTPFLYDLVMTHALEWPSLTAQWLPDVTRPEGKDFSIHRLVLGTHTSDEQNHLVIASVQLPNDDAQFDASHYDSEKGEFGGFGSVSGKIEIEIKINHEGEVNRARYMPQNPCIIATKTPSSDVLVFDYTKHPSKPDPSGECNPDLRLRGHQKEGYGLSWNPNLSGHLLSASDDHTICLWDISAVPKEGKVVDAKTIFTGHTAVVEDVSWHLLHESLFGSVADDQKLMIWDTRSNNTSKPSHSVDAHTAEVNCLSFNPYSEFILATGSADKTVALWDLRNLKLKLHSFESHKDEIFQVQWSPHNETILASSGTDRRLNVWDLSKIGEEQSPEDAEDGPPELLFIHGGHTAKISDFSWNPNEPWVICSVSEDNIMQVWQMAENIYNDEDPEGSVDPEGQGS
# ASSAY_PROTOCOL: PRC2 enzyme assay on peptide substrates (wild-type EZH2)
Please respond with Satisfied when measured IC50 is strictly beneath 0.01 µM, and with Not satisfied in all other cases.

The following compounds have reported results that may help.
CHEMICAL_SMILES: CCN(c1cc(C#CC(C)(C)O)cc(C(=O)NCc2c(C)cc(C)[nH]c2=O)c1C)[C@H]1CC[C@H](N(C)CCOC)CC1
TARGET_UNDER_TEST: wild-type EZH2 (PRC2 complex) (Homo sapiens (Human), UniProt Q15910)
GROUP_LABEL: Satisfied
//
CHEMICAL_SMILES: CCN(c1cc(-c2ccc(OCCOCCOC)cc2)cc(C(=O)NCc2c(C)cc(C)[nH]c2=O)c1C)[C@H]1CC[C@H](N(C)C)CC1
TARGET_UNDER_TEST: wild-type EZH2 (PRC2 complex) (Homo sapiens (Human), UniProt Q15910)
GROUP_LABEL: Not satisfied
//
CHEMICAL_SMILES: CCN(c1cc(-c2ccc(OCCOC)nc2)cc(C(=O)NCc2c(C)cc(C)[nH]c2=O)c1C)[C@H]1CC[C@H](N(C)C)CC1
TARGET_UNDER_TEST: wild-type EZH2 (PRC2 complex) (Homo sapiens (Human), UniProt Q15910)
GROUP_LABEL: Not satisfied
//
CHEMICAL_SMILES: CCN(c1cc(C#CCN2CCOCC2)cc(C(=O)NCc2c(C)cc(C)[nH]c2=O)c1C)[C@H]1CC[C@H](N(C)C)CC1
TARGET_UNDER_TEST: wild-type EZH2 (PRC2 complex) (Homo sapiens (Human), UniProt Q15910)
GROUP_LABEL: Satisfied

Next up:
INPUT: Please indicate whether the reported IC50 of CCN(c1cc(-c2cnc(OC)cn2)cc(C(=O)NCc2c(C)cc(C)[nH]c2=O)c1C)[C@H]1CC[C@H](N(C)CCOC)CC1 is strictly below 0.01 µM.
OUTPUT: Not satisfied

====

# TARGET_UNDER_TEST: wild-type EZH2 (PRC2 complex) (Homo sapiens (Human), UniProt Q15910)
# ASSAY_PROTOCOL: PRC2 enzyme assay on peptide substrates (wild-type EZH2)
REPORTED_PROPERTY: IC50

Solved entries (count: 2):
COMPOUND: CCN(c1cc(C#CC2CCN(C)CC2)cc(C(=O)NCc2c(OC)cc(C)[nH]c2=O)c1C)C1CCOCC1 [Compound 163]
REPORTED_PROPERTY: IC50
RESULT: < 5 nM
--
COMPOUND: CCN(c1cc(C#CC2CCN(CC(F)(F)F)CC2)cc(C(=O)NCc2c(C)cc(C)[nH]c2=O)c1C)[C@H]1CC[C@H](N(C)C)CC1 [Compound 161]
REPORTED_PROPERTY: IC50
RESULT: < 5 nM

Moving on to the next compound.
INPUT: Supply reported IC50 belonging to this compound: CCN(c1cc(C#CC2CCN(C3CC3)CC2)cc(C(=O)NCc2c(C)cc(C)[nH]c2=O)c1C)C1CCOCC1 [Compound 157]
OUTPUT: < 5 nM

====

// pIC50 lookup, one value per entry
# TARGET_UNDER_TEST: wild-type EZH2 (PRC2 complex) (Homo sapiens (Human), UniProt Q15910)
# ASSAY_PROTOCOL: PRC2 enzyme assay on peptide substrates (wild-type EZH2)
// pIC50: -log10(molar conc.)

CHEMICAL_SMILES: CCN(c1cc(-c2cncnc2)cc(C(=O)NCc2c(C)cc(C)[nH]c2=O)c1C)[C@H]1CC[C@H](N(C)CCOC)CC1
pIC50: 8.00

Let us move to another entry and its pIC50.
INPUT: Supply measured pIC50 of CCN(c1cc(C#CCN2CCN(C)CC2)cc(C(=O)NCc2c(C)cc(C)[nH]c2=O)c1C)[C@H]1CC[C@H](N(C)CCOC)CC1 in your reply.
OUTPUT: 7.68

====

# TARGET_UNDER_TEST: wild-type EZH2 (PRC2 complex) (Homo sapiens (Human))
# ASSAY_PROTOCOL: PRC2 enzyme assay on peptide substrates (wild-type EZH2)
pIC50: −log10 of the molar value.
pIC50 reference

COMPOUND: CCN(c1cc(-c2cnc(OC)nc2)cc(C(=O)NCc2c(C)cc(C)[nH]c2=O)c1C)[C@H]1CC[C@H](N(C)CCOC)CC1 [Compound 20]
RESULT: > 8.30

INPUT: Indicate the recorded pIC50 value for this compound: CCN(c1cc(C#CC2CCN(C3COC3)CC2)cc(C(=O)NCc2c(C)cc(C)[nH]c2=O)c1C)C1CCOCC1 [Compound 159]
OUTPUT: > 8.30

INPUT: State, in one line, measured pIC50 of CCN(c1cc(C#CC2CCN(C3CCC3)CC2)cc(C(=O)NCc2c(C)cc(C)[nH]c2=O)c1C)C1CCOCC1 [Compound 158]
OUTPUT: > 8.30
